# Tested on: TK-10 renal
# EXPERIMENTAL PROTOCOL: NCI tumour cell line growth inhibition, 48 h
The following molecules are listed with their measured log10(TGI) values.
READOUT KIND: log10(TGI) (log10 of the value in µM)

1. CC(C)/C(Cl)=N\OC(=O)Nc1cccc(Cl)c1 = 1.46
2. Cc1cnc(C(=O)Nc2nc3ccc(S(=O)(=O)Nc4ccc(C5(C(F)(F)F)CC5)cc4)cc3[nH]2)cn1 = 1.08
3. O=c1cccccc1[O-].O=c1cccccc1[O-].O=c1cccccc1[O-].[La+3] = 1.83
4. COc1ccc(C(=O)/C=C/c2cc(O)c(O)c(F)c2F)c(OC)c1 = 1.94
5. OC(c1cc(C23CC4CC(CC(C4)C2)C3)nc2c(Cl)cc(Cl)cc12)C1CCCCN1 (stereo not given) = 0.51

###

# System: NCI-H23 lung
# EXPERIMENTAL PROTOCOL: NCI tumour cell line growth inhibition, 48 h
READOUT KIND: GI50

1) C#CCOc1cccc(Nc2ncnc3cc(NC(=O)CCl)ccc23)c1 = 3.4 µM
2) Cc1ccc(O)c(NC(=O)c2ccc(CNc3ccnc(C(F)(F)F)c3)cc2)c1 = 10.6 µM
3) COC(=O)CC[C@H](Cc1ccccc1)NC(=O)c1csc([C@@H](C[C@H](C(C)C)N(C)C(=O)[C@@H](NC(=O)[C@H]2CCCCN2C)C(C)C)OC(C)=O)n1 = 0.00515 µM
4) O=C1c2ccccc2-c2c1c1ccccc1c(=O)n2CCCn1ccnc1 = 1.84 µM
5) CN(C)c1ccc(/C=C/c2cc[n+](C)c(/C=C/c3ccc(N(C)C)cc3)c2)cc1 = 0.194 µM
6) Cc1cc(N2CCOCC2)cc2[nH]c(-c3c(NC[C@@H](O)c4cccc(Cl)c4)cc[nH]c3=O)nc12 = 1.29 µM
7) O=C(/C=C/c1ccc(C(F)(F)F)cc1)c1ccc(Nc2nc(NCCO)nc(Nc3ccc(Cl)cc3)n2)cc1 = 10.7 µM
8) O=c1c(-c2ccccc2)coc2cc(OC/C(=N/O)c3ccccc3)ccc12 = > 100 µM
9) OCC#Cc1ccccc1C#CCCCCCC#Cc1ccccc1C#CCO = 18.4 µM
10) CN(C)CCCNC(=O)c1cc(NC(=O)c2cc(NC(=O)CCNS(=O)(=O)c3ccc4c(c3)C(=O)c3ccccc3C4=O)cn2C)cn1C = > 100 µM

###

# Tested on: MCF7 breast
# EXPERIMENTAL PROTOCOL: NCI tumour cell line growth inhibition, 48 h
*1 amine or outer side, *2 acyl side, *3 side chain or, on linkers, in order; H or OH if unused. Where a SMILES comes first, the peptide text is derived from it. [ ]: non-standard residue; d: D form. X32 = C[C@H](N[*:1])C(=O)C(C)(C)C(=O)[*:2]; Hmpa(2S,3S) = CC[C@H](C)[C@H](O)C(=O)O; NMeY = CN[C@@H](Cc1ccc(O)cc1)C(=O)O; NMeL = CN[C@@H](CC(C)C)C(=O)O; NMeV = CN[C@H](C(=O)O)C(C)C; βAla = NCCC(=O)O
Quick reference: TGI of the listed items.
READOUT KIND: TGI

1) O=C1CC(c2ccccc2)n2cccc21 (configuration not stated) = > 100 µM
2) Cc1cccc(NC(=O)c2cccc([N+](=O)[O-])c2O)c1C = 81.2 µM
3) Cc1ccccc1S(=O)(=O)Nn1cnc2ccc(S(=O)(=O)Nc3ccc(Cl)cc3)cc2c1=O = > 100 µM
4) CCNC(=O)O[C@H]1CN[C@H](C#Cc2cc3ncnc(Nc4ccc(OCc5cccc(F)c5)c(Cl)c4)c3s2)C1 = > 25 µM
5) CC(=O)OCc1cc2ccccc2nc1C(Br)(Br)Br = 30.7 µM
6) CC[C@H](C)[C@@H]1OC(=O)CCNC(=O)[C@@H](C)NC(=O)C(C)(C)C(=O)[C@H](C)NC(=O)[C@H](Cc2ccc(OC)cc2)N(C)C(=O)[C@H](C(C)C)N(C)C(=O)CNC(=O)[C@H](CC(C)C)N(C)C(=O)CNC1=O (cyclo(G[NMeL]G[NMeV][NMeY](Me)[X32][dA][βAla][Hmpa(2S,3S)])) = > 50 µM
7) C[C@@H]1CC[C@@H]2[C@@H](C1)O[C@@H]([C@H](C)OCc1ccccc1)SC2(C)C = 31.5 µM
8) Cn1c(-c2cccc([N+](=O)[O-])c2)[n+](C)c2ccccc21 = > 100 µM
9) Cc1ccc(O)c(NC(=O)c2ccc(CNc3ccnc(C(F)(F)F)c3)cc2)c1 = 38.9 µM
10) CC1(C)OCC=CCO1 = > 100 µM
11) COI1NC(=O)c2ccccc21 = > 100 µM
12) COc1cc(CNNC(N)=S)cc(OC)c1OC = > 100 µM
